Assay: Plasma pharmacokinetics of PF-04928473 after oral PF-04929113
Type: in vivo, human
Conditions: human, plasma, oral
readout name: half-life

Requested read-out: half-life. Entry: CC1(C)CC(=O)c2c(C(F)(F)F)nn(-c3ccc(C(N)=O)c(N[C@H]4CC[C@H](O)CC4)c3)c2C1 [PF-04928473] 8 to 15 h
